Target: T1, human GPVI-Fc fusion protein (human, UniProt Q9HCN6 21-267, limits assumed)
T1 construct: also called human GPVI protein antigen
T1 sequence (looked up): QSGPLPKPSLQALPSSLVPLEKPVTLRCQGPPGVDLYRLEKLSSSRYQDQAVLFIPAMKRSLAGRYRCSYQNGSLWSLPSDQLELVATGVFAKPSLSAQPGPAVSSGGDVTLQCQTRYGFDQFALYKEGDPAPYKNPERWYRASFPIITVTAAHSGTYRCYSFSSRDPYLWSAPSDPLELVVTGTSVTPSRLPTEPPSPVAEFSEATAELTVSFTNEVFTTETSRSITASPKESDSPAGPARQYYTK
Assay: BLI (Octet), GPVI-Fc on biosensor, 1:1 fit
Observed Property: koff (s⁻¹)
# number only, unit s⁻¹ dropped from output

Exercise: Specify koff for HC3 LC1 humanized Fab (Fab, V domains shown, also called VH3:VL1) VH: QVQLVESGGGVVQPGRSLRLSCVASGFSLTSYGVTWVRQAPGKGLEWVAVIWGDGSTNYHSGLRSRFTISRDNSKNTMFLQMNSLRADDTAVYYCAKPIYYDFDDDAMDYWGQGTLVTVSS VL: EIVLTQSPSSLSASVGDRVTITCKASQNVGTYVAWFQQKPGKAPKSLIYSASYRCSGVPSKFSGSGSGTDFTLTISSLQPEDFATYYCHQYNNYPLTFGQGTKLEIKR and stop.
Solution: 0.000587

Data origin: patent EP4431526A1
